# method-description: Oral bioavailability in Sprague-Dawley rat at 5 mg/kg administration by LC-MS/MS analysis
# Type: ADME, organism-based
# protocol-conditions: in vivo
measured-metric: bioavailability (%)

Worked cases, answers included:
CNC(=O)c1[nH]c(C(=O)NC2CCC2)cc1OC(C)c1ccc(Cl)cc1F (single isomer, unassigned) :: 65
CNC(=O)c1[nH]c(C(=O)NC2CC2)cc1O[C@@H](C)c1ccccc1F :: 70
CNC(=O)c1[nH]c(C(=O)NC2CCC2)cc1OC(C)c1ccccc1F (stereo not given) :: 58

A: CCNC(=O)c1cc(OC(C)c2ccc(Cl)cc2F)c(C(=O)NC)[nH]1 (stereo not given)
B: CNC(=O)c1[nH]c(C(=O)NC2CCC2)cc1OC(C)c1ccc(Cl)cc1 (stereo not given)
Could you point out whether the larger bioavailability belongs to A or to B ? Field: selected label. Fill in the label of the entry you choose.
A

====

# method-description: Oral bioavailability in Sprague-Dawley rat at 5 mg/kg administration by LC-MS/MS analysis
# Type: ADME, organism-based
# protocol-conditions: in vivo
measured-metric: bioavailability (%)

Consider the reported bioavailability for these compounds:
CCNC(=O)c1cc(OC(C)c2ccc(Cl)cc2)c(C(=O)NC)[nH]1 (stereo not given) :: 30
CNC(=O)c1[nH]c(C(=O)NC2COC2)cc1OC(C)c1ccc(Cl)cc1 (stereo not given) :: 15
CNC(=O)c1[nH]c(C(=O)N[C@H]2CC[C@H](O)CC2)cc1OC(C)c1ccc(Cl)cc1F (stereo not given in full) :: 66

I: CCNC(=O)c1cc(OC(C)c2ccccc2F)c(C(=O)NC)[nH]1 (stereo not given)
II: CNC(=O)c1[nH]c(C(=O)NC2CCC2)cc1OC(C)c1ccccc1 (stereo not given)
Field: entry with larger bioavailability (options I / II ). Please reply using the label of the selected record.
II
(II: 66%, I: 46%)
